All figures here come from ChEMBL document CHEMBL4715780.

Listing of recorded MIC by entry.
# System: Pseudomonas aeruginosa
# measurement.description: Antibacterial activity against Pseudomonas aeruginosa ATCC 9027 assessed as bacterial growth inhibition by CLSI protocol based serial microdilution method
# Type: functional
observable: MIC

test_smiles=CCCCCCCCCCCC[N+]12CC[N+](Cc3cccc(C[N+]45CC[N+](CCCCCCCCCCCC)(CC4)CC5)c3)(CC1)CC2 assay_result="1.6 µg/mL"
test_smiles=C#CCOCCCCCN(CC[N+]12CC[N+](CCCCCCCCCCCC)(CC1)CC2)CC[N+]12CC[N+](CCCCCCCCCCCC)(CC1)CC2.[Cl-].[Cl-].[Cl-].[Cl-] assay_result="6.3 µg/mL"
test_smiles=CCCCCCCCCCCC[N+]12CC[N+](CCCCC[N+]34CC[N+](CCCCCCCCCCCC)(CC3)CC4)(CC1)CC2 assay_result="3.1 µg/mL"
test_smiles=CCCCCCCCCCCC[N+]12CC[N+](Cc3ccccc3C[N+]34CC[N+](CCCCCCCCCCCC)(CC3)CC4)(CC1)CC2 assay_result="1.6 µg/mL"
test_smiles=CCCCCCCCCCCC[N+]12CC[N+](C/C=C/C[N+]34CC[N+](CCCCCCCCCCCC)(CC3)CC4)(CC1)CC2 assay_result="1.6 µg/mL"
test_smiles=CCCCCCCCCCCC[N+]12CC[N+](CCC[N+]34CC[N+](CCCCCCCCCCCC)(CC3)CC4)(CC1)CC2 assay_result="1.6 µg/mL"
test_smiles=CCCCCCCCCCCC[N+]12CC[N+](CCCCCCCC[N+]34CC[N+](CCCCCCCCCCCC)(CC3)CC4)(CC1)CC2 assay_result="3.1 µg/mL"

----------
Here, each record is paired with measured selectivity ratio at 24 h data.
# measurement.description: Selectivity index, ratio of CC50 for HEK293T cells assessed as reduction in cell viability measured after 24 hrs by MTT assay to MIC for Proteus vulgaris ATCC 6380 assessed as bacterial growth inhibition by CLSI protocol based serial microdilution method
# Format: toxicity
# stated.conditions: human, read-out: Selectivity Index
observable: selectivity ratio at 24 h

test_smiles=CCCCCCCCCCCC[N+]12CC[N+](CCCC[N+]34CC[N+](CCCCCCCCCCCC)(CC3)CC4)(CC1)CC2 assay_result="< 1"
test_smiles=CCCCCCCCCCCC[N+]12CC[N+](Cc3cccc(C[N+]45CC[N+](CCCCCCCCCCCC)(CC4)CC5)c3)(CC1)CC2 assay_result="< 1"
test_smiles=CCCCCCCCCCCC[N+]12CC[N+](CCCCC[N+]34CC[N+](CCCCCCCCCCCC)(CC3)CC4)(CC1)CC2 assay_result="< 1"
test_smiles=CCCCCCCCCCCC[N+]12CC[N+](Cc3ccc(C[N+]45CC[N+](CCCCCCCCCCCC)(CC4)CC5)cc3)(CC1)CC2 assay_result=1
test_smiles=CCCCCCCCCCCC[N+]12CC[N+](CCC[N+]34CC[N+](CCCCCCCCCCCC)(CC3)CC4)(CC1)CC2 assay_result="< 1"
test_smiles=CCCCCCCCCCCC[N+]12CC[N+](C/C=C/C[N+]34CC[N+](CCCCCCCCCCCC)(CC3)CC4)(CC1)CC2 assay_result="< 1"
test_smiles=CCCCCCCCCCCC[N+]12CC[N+](CC#CC[N+]34CC[N+](CCCCCCCCCCCC)(CC3)CC4)(CC1)CC2 assay_result="< 1"
test_smiles=CCCCCCCCCCCC[N+]12CC[N+](Cc3ccccc3C[N+]34CC[N+](CCCCCCCCCCCC)(CC3)CC4)(CC1)CC2 assay_result="< 1"
